- TEST TARGET: FGFR3 (UniProt P22607)
- Sequence (P22607 whole entry, looked up): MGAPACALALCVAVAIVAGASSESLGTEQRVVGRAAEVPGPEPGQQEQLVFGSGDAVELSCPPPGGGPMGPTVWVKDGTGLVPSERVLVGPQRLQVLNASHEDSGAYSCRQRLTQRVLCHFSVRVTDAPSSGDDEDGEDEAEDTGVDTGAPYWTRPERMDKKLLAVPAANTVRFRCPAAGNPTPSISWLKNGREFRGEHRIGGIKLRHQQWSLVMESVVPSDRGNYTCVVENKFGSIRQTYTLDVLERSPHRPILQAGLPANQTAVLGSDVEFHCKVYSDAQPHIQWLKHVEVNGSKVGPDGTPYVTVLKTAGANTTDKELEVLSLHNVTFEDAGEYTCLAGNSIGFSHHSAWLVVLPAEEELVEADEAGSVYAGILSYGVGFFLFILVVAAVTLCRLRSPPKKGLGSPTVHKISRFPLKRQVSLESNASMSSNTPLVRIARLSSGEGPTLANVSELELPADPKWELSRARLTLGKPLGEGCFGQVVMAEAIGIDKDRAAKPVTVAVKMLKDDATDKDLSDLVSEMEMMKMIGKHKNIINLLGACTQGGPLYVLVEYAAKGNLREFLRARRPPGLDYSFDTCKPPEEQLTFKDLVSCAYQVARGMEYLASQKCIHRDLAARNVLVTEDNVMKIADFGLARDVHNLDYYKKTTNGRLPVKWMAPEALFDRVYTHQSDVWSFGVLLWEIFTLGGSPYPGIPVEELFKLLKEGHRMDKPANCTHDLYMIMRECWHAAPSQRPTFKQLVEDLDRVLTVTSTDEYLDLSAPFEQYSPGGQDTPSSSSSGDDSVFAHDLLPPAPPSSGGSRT
- MEASUREMENT DESCRIPTION: phosphorylation enrichment, bacterial display (enrichment ratio); higher = better substrate or ligand; peptides without Tyr show the background
The following sequences are shown together with reported phosphorylation enrichment values.
OBSERVED PROPERTY: phosphorylation enrichment

1) GVTLLYFGRFN [ADGRD1_Y85_YF] : 0.794
2) PQGVRYTYTID [DCX_Y103_I104T] : 0.784
3) EVESPYEVHDY [GIGYF2_Y1168] : 0.792
4) GEDEPYAEPYA [APBA1_Y183_S184A] : 0.799
5) AELKLYSGAQT [ZAP70_Y178_R175L] : 0.595
6) ECKLFYSRKEG [PTPN11_Y263_L262F] : 0.602
7) VMAALYGRLYE [BTD_Y536_T532M] : 0.617
8) RRAKGYPINLY [ITGB2_Y125_D128N] : 0.605
9) YKGKNYKPLDL [RPL35_Y78_K77N] : 0.362
10) LSQDVYEEDSF [RET_Y900_R897Q_YF] : 1.44
11) QPTPGYEVGQR [TSC2_Y1788_E1783Q] : 0.621
12) GDSVQYNRTTD [MLPH_Y454_P451S] : 0.498
13) PKGIRYGQGAG [CSRP3_Y73_G72R] : 0.453
14) SVTCTYPPALN [TP53_Y126_S127P] : 0.578
15) DIPIRYSITGV [CDH4_Y205] : 0.478
16) SWSTSYSGFRF [NKAPL_Y91_YF] : 0.719
17) PFSSPYENSLI [EPOR_Y489_N487S_YF] : 1.3
18) VFAPDFIAGVS [NOB1_Y366_Y366F] : 0.619
19) LAARFYNWVSF [FLT4_Y1231_YF] : 1.56
20) QERPEYWDQET [HLA-A_Y83_G80R] : 0.915

----------
- TEST TARGET: Fes (UniProt P07332)
- Sequence (P07332 whole entry, looked up): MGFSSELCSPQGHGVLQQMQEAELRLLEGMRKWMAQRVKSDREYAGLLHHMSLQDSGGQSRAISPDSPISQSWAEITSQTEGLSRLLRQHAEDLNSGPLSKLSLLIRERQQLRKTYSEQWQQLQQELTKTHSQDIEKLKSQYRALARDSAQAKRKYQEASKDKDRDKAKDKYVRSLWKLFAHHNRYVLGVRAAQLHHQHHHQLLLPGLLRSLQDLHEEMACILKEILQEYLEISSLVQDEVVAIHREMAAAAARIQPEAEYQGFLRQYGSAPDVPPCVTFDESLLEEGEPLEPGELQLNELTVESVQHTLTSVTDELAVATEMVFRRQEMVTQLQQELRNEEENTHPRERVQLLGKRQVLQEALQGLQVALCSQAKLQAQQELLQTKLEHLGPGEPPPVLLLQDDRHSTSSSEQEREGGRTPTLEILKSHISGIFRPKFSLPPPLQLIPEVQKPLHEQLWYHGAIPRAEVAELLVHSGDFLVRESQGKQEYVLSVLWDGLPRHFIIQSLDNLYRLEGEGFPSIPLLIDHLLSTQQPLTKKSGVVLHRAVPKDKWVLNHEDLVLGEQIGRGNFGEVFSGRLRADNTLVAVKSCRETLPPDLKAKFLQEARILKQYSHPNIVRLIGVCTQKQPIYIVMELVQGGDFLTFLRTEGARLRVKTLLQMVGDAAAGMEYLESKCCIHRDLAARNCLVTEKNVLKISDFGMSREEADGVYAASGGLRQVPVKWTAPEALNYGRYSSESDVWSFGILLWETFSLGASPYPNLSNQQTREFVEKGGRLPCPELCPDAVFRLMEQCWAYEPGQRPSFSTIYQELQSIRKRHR
- MEASUREMENT DESCRIPTION: phosphorylation enrichment, bacterial display (enrichment ratio); higher = better substrate or ligand; peptides without Tyr show the background
The following sequences are shown together with reported phosphorylation enrichment values.
OBSERVED PROPERTY: phosphorylation enrichment

1. PKEEPYKMQEK [SLC5A3_Y565_Q566K] : 1.21
2. TGHKGYVAFLE [CARD9_Y76] : 0.666
3. RIDRKYKKVRF [F8_Y442_G439D] : 1
4. SIKDKYVTVLF [KCNH2_Y611_A614V_YF] : 0.91
5. YRIGPYQPSVP [MATR3_Y784_N787S] : 0.708
6. DHLASYLDKVR [KRT10_Y160_R156H] : 0.677
7. GDAMLYYPSVS [GPR143_Y177_A173D] : 0.736
8. EADRKYEEVAG [TPM3_Y163_R168G] : 1.07
9. SQSKGYRPKLY [SIPA1L3_Y1376_G1371S] : 0.651

----------
- TEST TARGET: EPHB1 (UniProt P54762)
- Sequence (P54762 whole entry, looked up): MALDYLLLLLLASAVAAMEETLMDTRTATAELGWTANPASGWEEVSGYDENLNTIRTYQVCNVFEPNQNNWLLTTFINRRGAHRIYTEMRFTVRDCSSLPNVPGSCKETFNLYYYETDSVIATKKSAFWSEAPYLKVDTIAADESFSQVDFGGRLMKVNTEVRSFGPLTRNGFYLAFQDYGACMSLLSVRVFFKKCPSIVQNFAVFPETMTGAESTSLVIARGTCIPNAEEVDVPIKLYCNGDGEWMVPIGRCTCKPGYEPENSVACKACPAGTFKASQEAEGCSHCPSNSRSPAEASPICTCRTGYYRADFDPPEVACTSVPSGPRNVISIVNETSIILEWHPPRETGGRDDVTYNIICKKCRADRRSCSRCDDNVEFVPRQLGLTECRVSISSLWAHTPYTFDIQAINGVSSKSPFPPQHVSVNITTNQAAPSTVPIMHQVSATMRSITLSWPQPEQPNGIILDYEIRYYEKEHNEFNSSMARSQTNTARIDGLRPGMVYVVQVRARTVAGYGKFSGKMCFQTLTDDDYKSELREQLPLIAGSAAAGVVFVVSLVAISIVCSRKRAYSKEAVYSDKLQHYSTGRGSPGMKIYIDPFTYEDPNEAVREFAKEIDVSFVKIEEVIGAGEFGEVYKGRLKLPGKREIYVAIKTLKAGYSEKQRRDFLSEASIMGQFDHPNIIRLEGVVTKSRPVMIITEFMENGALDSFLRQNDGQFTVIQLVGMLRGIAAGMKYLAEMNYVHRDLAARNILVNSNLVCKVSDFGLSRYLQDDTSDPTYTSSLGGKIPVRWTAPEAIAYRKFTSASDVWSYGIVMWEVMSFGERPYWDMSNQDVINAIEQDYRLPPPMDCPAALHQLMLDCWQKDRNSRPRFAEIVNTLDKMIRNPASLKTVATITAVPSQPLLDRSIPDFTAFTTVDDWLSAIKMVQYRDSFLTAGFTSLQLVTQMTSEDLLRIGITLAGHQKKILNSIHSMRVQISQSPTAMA
- MEASUREMENT DESCRIPTION: phosphorylation enrichment, bacterial display (enrichment ratio); higher = better substrate or ligand; peptides without Tyr show the background
OBSERVED PROPERTY: phosphorylation enrichment

1. DCPASYKKKSM [PDGFRA_Y768_R764C] : 0.591
2. RRNNSYTCFTA [SLC20A2_Y386_YF] : 0.96
3. MSLPGYKLVTG [GJA1_Y286_P283L] : 0.374
4. ANYTEYVATRW [CDKL5_Y171] : 8.12
5. EVEPTYVVLYD [ERCC4_Y577_R576T] : 10.9
6. SIKDKYVTAVY [KCNH2_Y611_L615V] : 0.446
7. SSMIDYKPLEK [MYOC_Y479_N480K] : 0.357
8. KDDEKYLDVSR [MTM1_Y260_I264S] : 0.521
9. SSSGAYGGGYG [KRT19_Y61] : 0.365
10. ALADKYHGGGG [HBB_Y146_H144D] : 0.287
11. MSSAGYRAAEG [COL6A3_Y543_T538M] : 0.389
12. YSIAQYCCRMG [LRRK2_Y2023_G2019S] : 1.98
13. EAIAKYDFKAT [GRB2_Y7] : 0.488
14. ISKKIYDPIHD [CTNNA3_Y614_T616P] : 0.48
15. EQLLDYTRTVQ [INPP5E_Y439_R435Q] : 0.557
16. EDEGLYTVRVP [MYOM3_Y343_M344T] : 0.766
17. ALAAPYVLFPG [CEFIP_Y1332_YF] : 0.581
18. KLIETYSSKNY [PLP1_Y50_F51S] : 0.684
19. KLLPEYPGILS [DHFR2_Y163_V166I] : 0.488

----------
- TEST TARGET: Grb2 SH2 (UniProt P62993)
- Sequence (P62993 whole entry, looked up): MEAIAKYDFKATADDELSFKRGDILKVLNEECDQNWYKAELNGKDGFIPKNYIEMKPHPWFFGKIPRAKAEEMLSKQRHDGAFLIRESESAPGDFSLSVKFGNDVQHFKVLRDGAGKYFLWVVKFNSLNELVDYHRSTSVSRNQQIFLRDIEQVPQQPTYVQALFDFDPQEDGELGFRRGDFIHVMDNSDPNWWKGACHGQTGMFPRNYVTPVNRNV
- MEASUREMENT DESCRIPTION: SH2 binding enrichment of the phosphorylated peptide, bacterial display (enrichment ratio); higher = better substrate or ligand; peptides without Tyr show the background
OBSERVED PROPERTY: SH2 binding enrichment

1) FQCKHYACIRQ [TIMP3_Y182_S179C_YF] : 1.74
2) GYITSYREEEQ : 0.646
3) FPKAHYHWLVL [APTX_Y214_R213H_YF] : 1.86
4) INNIDYFKKTT [FGFR2_Y656_YF] : 0.893
5) EFISEFCGEII [EZH2_Y641_Y641F] : 1.24
6) FKDGQYWIRGQ [ACSF3_Y466_R471Q] : 0.856
7) NDFGNYNQQPS [HNRNPA2B1_Y306] : 0.915
8) IMVFVYSRVFQ [ADRB2_Y219] : 1.12
9) RQLEIYRASRP [ERCC4_Y594] : 0.623
10) MEKEKYVSYIS [JMJD1C_Y596] : 0.612
11) WTAHSYRMGSA [ARHGEF7_Y785_T790A] : 0.96
12) ISDNACQYMLT [MYH7_Y162_Y162C] : 0.752
13) PQGVRYTYTID [DCX_Y103_I104T] : 0.779
14) RCKSHYAAFSV [C1QTNF1_Y145] : 1.45
15) LKLIQYHLTQQ [AKAP4_Y554] : 1.03

----------
The following sequences are shown together with reported SH2 binding enrichment values.
- TEST TARGET: c-Src SH2
- MEASUREMENT DESCRIPTION: SH2 binding enrichment of the phosphorylated peptide, bacterial display (enrichment ratio); higher = better substrate or ligand; peptides without Tyr show the background
OBSERVED PROPERTY: SH2 binding enrichment

1) EIEFLYNENTV [IARS1_Y680] : 0.615
2) RQNRFYDAKVR [FKBP6_Y188] : 0.441
3) KRIETYFSKNY [PLP1_Y50_L46R] : 0.502

----------
- TEST TARGET: Jak2 (UniProt O60674)
- Sequence (O60674 whole entry, looked up): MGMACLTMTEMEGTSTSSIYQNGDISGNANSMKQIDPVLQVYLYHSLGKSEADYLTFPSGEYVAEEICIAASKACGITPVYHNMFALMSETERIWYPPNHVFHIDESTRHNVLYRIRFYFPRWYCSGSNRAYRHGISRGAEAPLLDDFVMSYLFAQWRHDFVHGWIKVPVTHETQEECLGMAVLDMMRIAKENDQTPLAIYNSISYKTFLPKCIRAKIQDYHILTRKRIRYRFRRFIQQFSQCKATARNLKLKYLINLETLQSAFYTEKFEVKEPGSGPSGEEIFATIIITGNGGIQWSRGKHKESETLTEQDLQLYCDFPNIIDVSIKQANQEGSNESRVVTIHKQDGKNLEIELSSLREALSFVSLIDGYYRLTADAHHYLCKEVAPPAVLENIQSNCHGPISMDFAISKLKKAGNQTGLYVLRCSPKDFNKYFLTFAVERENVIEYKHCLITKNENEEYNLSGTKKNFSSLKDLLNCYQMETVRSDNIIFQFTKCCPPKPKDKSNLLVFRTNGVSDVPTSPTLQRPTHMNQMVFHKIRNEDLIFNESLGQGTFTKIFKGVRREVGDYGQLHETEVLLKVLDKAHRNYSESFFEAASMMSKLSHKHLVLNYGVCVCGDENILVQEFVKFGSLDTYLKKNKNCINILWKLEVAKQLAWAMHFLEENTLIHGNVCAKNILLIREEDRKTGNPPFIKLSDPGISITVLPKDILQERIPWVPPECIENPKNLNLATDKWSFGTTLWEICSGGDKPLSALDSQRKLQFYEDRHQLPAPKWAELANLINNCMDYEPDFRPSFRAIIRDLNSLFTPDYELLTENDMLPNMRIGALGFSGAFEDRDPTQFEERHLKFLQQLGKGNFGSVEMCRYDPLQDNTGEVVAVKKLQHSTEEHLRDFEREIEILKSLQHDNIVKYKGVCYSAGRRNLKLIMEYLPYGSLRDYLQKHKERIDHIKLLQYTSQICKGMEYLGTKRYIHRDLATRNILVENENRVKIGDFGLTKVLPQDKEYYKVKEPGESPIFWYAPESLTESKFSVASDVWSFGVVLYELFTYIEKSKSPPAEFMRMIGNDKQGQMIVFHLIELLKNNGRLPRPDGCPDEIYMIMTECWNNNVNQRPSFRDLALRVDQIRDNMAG
- MEASUREMENT DESCRIPTION: phosphorylation enrichment, bacterial display (enrichment ratio); higher = better substrate or ligand; peptides without Tyr show the background
The following sequences are shown together with reported phosphorylation enrichment values.
OBSERVED PROPERTY: phosphorylation enrichment

1. VHSGTYQVTVC [MYBPC3_Y1043_R1048C] : 1.01
2. QYNPEYVQQAS [LRRC7_Y1058_H1054Y] : 0.995
3. STTIHYNFMCN [TP53_Y234_C229S_YF] : 0.998

----------
The following sequences are shown together with reported SH2 binding enrichment values.
- TEST TARGET: Grb2 SH2 (UniProt P62993)
- MEASUREMENT DESCRIPTION: SH2 binding enrichment of the phosphorylated peptide, bacterial display (enrichment ratio); higher = better substrate or ligand; peptides without Tyr show the background
OBSERVED PROPERTY: SH2 binding enrichment

1. PLTRSYIREKV [CYP2C8_Y243_A238P] : 0.923
2. GSQERDFELVE [TSC2_Y407_Y407D] : 0.881
3. MAQDIYRASYY [ALK_Y1278_R1275Q] : 0.882

----------
- Tested on: c-Abl (mouse)
- MEASUREMENT DESCRIPTION: phosphorylation enrichment, bacterial display (enrichment ratio); higher = better substrate or ligand; peptides without Tyr show the background
OBSERVED PROPERTY: phosphorylation enrichment

1. SSMIDYKPLEK [MYOC_Y479_N480K] : 0.459
2. IRTGIYHGGEP [PIK3CA_Y361_V356I] : 0.516
3. LTMAPYSSVSL [FAM81A_Y24] : 0.511
